Source of measurements: ChEMBL document CHEMBL1125363

Target: D(2) dopamine receptor (Mus musculus, UniProt P61168)
Sequence (P61168 whole entry): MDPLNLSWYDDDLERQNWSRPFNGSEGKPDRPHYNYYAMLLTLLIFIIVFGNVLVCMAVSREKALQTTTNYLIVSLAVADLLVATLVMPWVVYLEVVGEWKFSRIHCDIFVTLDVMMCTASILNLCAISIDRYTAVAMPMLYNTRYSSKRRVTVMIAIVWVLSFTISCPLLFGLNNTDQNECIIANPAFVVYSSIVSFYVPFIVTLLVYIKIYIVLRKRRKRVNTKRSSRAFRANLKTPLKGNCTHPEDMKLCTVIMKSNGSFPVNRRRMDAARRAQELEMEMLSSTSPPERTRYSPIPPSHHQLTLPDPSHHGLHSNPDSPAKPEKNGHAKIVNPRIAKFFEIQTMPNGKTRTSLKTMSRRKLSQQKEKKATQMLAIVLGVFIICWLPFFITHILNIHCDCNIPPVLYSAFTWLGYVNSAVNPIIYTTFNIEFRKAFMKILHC
Experiment: In vitro binding affinity towards dopamine receptor D2
recordedMetric: IC50 (µM)

a = c1ccc(OCC2CCN(CC3CC3)CC2)cc1
b = Cl.OC(Cc1ccccc1)C1CCN(Cc2ccccc2)CC1 (stereo not given)
c = Cl.Clc1ccc(OCC2CCN(CC3CC3)CC2)c(Cl)c1
Ordering criterion: IC50; begin with the maximum. Please express your ranking as an ordered list of the labels. b, a, c

a = O.O=C(Cc1ccc(F)cc1)C1CCN(Cc2ccccc2)CC1.O=C(O)/C=C\C(=O)O
b = Br.O=C(CC1CCN(CC2CC2)CC1)c1ccc(Cl)cc1
Lab notebook, comparison: a versus b , higher IC50 goes to which? Answer format: the label of the selected item. a

a = O=C(CC1CCCN(Cc2ccccc2)C1)c1ccc(F)cc1 (stereo not given)
b = COc1ccc(C(=O)CC2CCN(Cc3ccccc3)CC2)cc1
c = CC1(CN2CCC(COc3ccc(F)cc3)CC2)CC1(Cl)Cl.O=C(O)/C=C/C(=O)O (stereo not given)
d = O=C(Cc1ccc(F)cc1)CC1CCN(Cc2ccccc2)CC1.O=C(O)/C=C\C(=O)O
e = Br.COc1ccc(C(=O)CC2CCN(CC3CC3)CC2)cc1
I would appreciate it if you could sort these 5 compounds by IC50, starting from the smallest number. Please express your ranking as an ordered list of the labels. a, c, d, e, b
(a: 0.034 µM, c: 0.179 µM, d: 1.1 µM, e: 1.8 µM, b: 6.07 µM)

A = CC1CC1CN1CCC(COc2ccc(F)cc2)CC1.O=C(O)/C=C\C(=O)O (stereo not given)
B = CN(C)c1cccc(OCC2CCN(CC3CC3)CC2)c1.O
Record comparison, field IC50: mark the lower of A and B . Answer format: the label of the selected item. A
(A: 0.945 µM, B: 7.33 µM)

P = O=C(O)/C=C\C(=O)O.c1ccc(CCCOC2CCN(Cc3ccccc3)CC2)cc1
Q = Cl.Fc1ccc(COCC2CCN(Cc3ccc(-c4ccccc4)cc3)CC2)cc1
R = Fc1ccc(COCC2CCN(CCc3ccccc3)CC2)cc1.O=C(O)/C=C\C(=O)O
S = Cl.Oc1ccc(CN2CCC(COCc3ccc(F)cc3)CC2)cc1
T = O=C(CC1CCN(Cc2ccc(C(F)(F)F)cc2)CC1)c1ccc(F)cc1
Order the records so the highest IC50 appears first and the lowest last. Please express your ranking as an ordered list of the labels. P, S, Q, R, T

1 = COc1ccc(CN2CCC(COc3ccc(F)cc3)CC2)cc1.O.O=C(O)/C=C\C(=O)O
2 = Fc1ccc(COCC2CCN(Cc3ccccc3)CC2)cc1.O=C(O)/C=C\C(=O)O
Record comparison, field IC50: mark the lower of 1 and 2 . Answer format: the label of the selected item. 1
(1: 1.34 µM, 2: 3.9 µM)

1 = O.OC(CC1CCN(Cc2ccccc2)CC1)c1cccs1 (stereo not given)
2 = O.O=C(O)/C=C\C(=O)O.c1ccc(CN2CCC(COCc3ccc(-c4ccccc4)cc3)CC2)cc1
3 = Cl.c1ccc(CN2CCC(COc3ccc4ccccc4n3)CC2)cc1
4 = Fc1ccc(CN2CCC(COc3ccc(F)cc3)CC2)cc1
I would appreciate it if you could sort these 4 compounds by IC50, starting from the smallest number. Please express your ranking as an ordered list of the labels. 4, 2, 1, 3
(4: 1.07 µM, 2: 1.85 µM, 1: 3.72 µM, 3: 6.3 µM)

a = Cl.O=[N+]([O-])c1ccc(OCC2CCN(Cc3ccccc3)CC2)cc1
b = Cl.Fc1ccc(OCC2CCN(CC3CC3)CC2)cc1F
Lab notebook, comparison: a versus b , higher IC50 goes to which? Answer format: the label of the selected item. a

----------
Target: D(1A) dopamine receptor (Mus musculus, UniProt Q61616)
Sequence (Q61616 whole entry): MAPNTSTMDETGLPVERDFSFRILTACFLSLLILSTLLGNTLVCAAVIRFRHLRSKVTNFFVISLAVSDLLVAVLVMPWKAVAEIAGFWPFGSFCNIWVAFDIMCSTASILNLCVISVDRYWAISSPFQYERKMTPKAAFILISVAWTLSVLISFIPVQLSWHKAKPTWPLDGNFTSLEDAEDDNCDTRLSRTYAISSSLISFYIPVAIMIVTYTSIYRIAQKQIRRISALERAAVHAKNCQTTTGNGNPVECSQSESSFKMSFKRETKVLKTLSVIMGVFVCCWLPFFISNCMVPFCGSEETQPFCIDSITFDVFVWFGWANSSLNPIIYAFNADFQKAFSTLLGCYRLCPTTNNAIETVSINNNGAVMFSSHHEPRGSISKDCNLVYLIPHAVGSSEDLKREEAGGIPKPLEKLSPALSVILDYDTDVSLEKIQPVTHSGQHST
Assay: The compound was tested in vitro for its binding affinity towards dopamine receptor D1
recordedMetric: Ki

Notebook: N#Cc1ccc(C(=O)CC2CCN(CC3CC3)CC2)cc1.O=C(O)/C=C/C(=O)O , Ki read as > 10 µM

----------
Species on record: Mus musculus
Assay: Oral potency tested by using anti-mescaline test
Type: functional
recordedMetric: ED50 (mg/kg)
Record the value in mg/kg, omitting the unit from your answer.

Notebook: Cl.Fc1ccc(OCCC2CCN(Cc3ccccc3)CC2)cc1.O , ED50 read as 16

----------
Target: Serotonin 2 (5-HT2) receptor (Mus musculus, UniProt Q02152+P34968+P35363)
Experiment: In vitro binding affinity for serotonin 5-hydroxytryptamine (5-HT) 2 receptors
Assay type: protein assay
recordedMetric: Ki (nM)

Worked cases, answers included:
Notebook: OC(CCCN1CCN(c2ncc(F)cn2)CC1)c1ccc(F)cc1 (stereo unspecified) [BMY-14802] , Ki read as 410

Notebook: Fc1ccc(OCC2CCN(CC3CC3)CC2)cc1 , Ki read as 9

Notebook: Cl.Clc1ccc(OCC2CCN(CC3CC3)CC2)c(Cl)c1 , Ki read as 32

Notebook: O.O=[N+]([O-])c1ccc(OCC2CCN(CC3CC3)CC2)cc1 , Ki read as 215

Notebook: Cl.c1ccc(CN2CCC(COC3CCCCC3)CC2)cc1 , Ki read as 1363

A = c1ccc(Oc2ccc(OCC3CCN(CC4CC4)CC3)cc2)cc1
B = Cl.Fc1ccc(COCC2CCN(Cc3cccc4ccccc34)CC2)cc1
Lab notebook, comparison: A versus B , higher Ki goes to which? Answer format: the label of the selected item. A

----------
Target: Serotonin 2 (5-HT2) receptor (Mus musculus, UniProt Q02152+P34968+P35363)
Assay: In vitro binding affinity for serotonin 5-hydroxytryptamine (5-HT) 2 receptors
Assay type: protein assay
recordedMetric: Ki (nM)

Notebook: O=C(CC1CCN(CCc2ccccc2)CC1)c1ccc(F)cc1 , Ki read as 8

P = Br.O=C(CC1CCN(CC2CC2)CC1)c1ccc(F)cc1
Q = O=C(CC1CCN(CCc2ccc(Cl)cc2)CC1)c1ccc(F)cc1
Lab notebook, comparison: P versus Q , higher Ki goes to which? Answer format: the label of the selected item. P
(P: 15 nM, Q: 8.4 nM)

----------
Target: Serotonin 2 (5-HT2) receptor (Mus musculus, UniProt Q02152+P34968+P35363)
Experiment: In vitro binding affinity for serotonin 5-hydroxytryptamine (5-HT) 2 receptors
Type: protein assay
recordedMetric: Ki (nM)

Worked cases, answers included:
Notebook: O.O=C(CC1CCN(Cc2ccccc2)CC1)c1ccc(F)cc1.O=C(O)/C=C\C(=O)O , Ki read as 20

Notebook: Br.O=C(CC1CCN(CCC2CC2)CC1)c1ccc(F)cc1 , Ki read as 12

Notebook: COC(=O)c1ccc(CN2CCC(COCc3ccc(F)cc3)CC2)cc1.Cl , Ki read as 313

Notebook: Fc1ccc(OCC2CCN(Cc3ccc4ccccc4c3)CC2)cc1 , Ki read as 118

A = Br.COc1ccc(C(=O)CC2CCN(CC3CC3)CC2)cc1
B = O=C(CC1CCN(CCc2ccc(C(F)(F)F)cc2)CC1)c1ccc(F)cc1
C = CN(C)c1cccc(OCC2CCN(CC3CC3)CC2)c1.O
I would appreciate it if you could sort these 3 compounds by Ki, starting from the smallest number. Please express your ranking as an ordered list of the labels. B, C, A

----------
Target: Serotonin 2 (5-HT2) receptor (Mus musculus, UniProt Q02152+P34968+P35363)
Assay: In vitro binding affinity for serotonin 5-hydroxytryptamine (5-HT) 2 receptors
Assay type: protein assay
recordedMetric: Ki (nM)

Worked cases, answers included:
// assay Serotonin 2 (5-HT2) receptor (Mus musculus, UniProt Q02152+P34968+P35363), entry Cl.Clc1ccc(OCC2CCN(Cc3ccccc3)CC2)cc1 , Ki value = 137

// assay Serotonin 2 (5-HT2) receptor (Mus musculus, UniProt Q02152+P34968+P35363), entry Fc1ccc(CN2CCC(COc3ccc(F)cc3)CC2)cc1 , Ki value = 38

// assay Serotonin 2 (5-HT2) receptor (Mus musculus, UniProt Q02152+P34968+P35363), entry O=C(Cc1ccc(F)cc1)CC1CCN(Cc2ccccc2)CC1.O=C(O)/C=C\C(=O)O , Ki value = 316

1 = Cl.OC(Cc1ccccc1)C1CCN(Cc2ccccc2)CC1 (stereo unspecified)
2 = O.OC(CC1CCN(CCc2ccccc2)CC1)c1ccc(F)cc1 (stereo unspecified)
3 = Fc1ccc(COCC2CCN(Cc3ccccc3)CC2)cc1.O=C(O)/C=C\C(=O)O
4 = Cl.Clc1ccc(OCC2CCN(CC3CC3)CC2)cc1
5 = Cl.Oc1ccc(CN2CCC(COCc3ccc(F)cc3)CC2)cc1
I would appreciate it if you could sort these 5 compounds by Ki, starting from the smallest number. Please express your ranking as an ordered list of the labels. 4, 2, 3, 5, 1

----------
Target: Sigma non-opioid intracellular receptor 1 (Mus musculus)
Sequence (O55242 whole entry): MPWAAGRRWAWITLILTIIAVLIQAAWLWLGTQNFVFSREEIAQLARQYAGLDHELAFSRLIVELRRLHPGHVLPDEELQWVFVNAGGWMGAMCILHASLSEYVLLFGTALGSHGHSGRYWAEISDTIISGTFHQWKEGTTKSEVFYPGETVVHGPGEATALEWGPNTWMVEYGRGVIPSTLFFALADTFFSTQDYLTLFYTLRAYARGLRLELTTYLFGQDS
Test: In vitro binding affinity for the mouse sigma opioid receptor
recordedMetric: Ki (nM)

P = OC(CCCN1CCN(c2ncc(F)cn2)CC1)c1ccc(F)cc1 (stereo unspecified)
Q = Fc1ccc(COCC2CCN(CCc3ccccc3)CC2)cc1.O=C(O)/C=C\C(=O)O
Record comparison, field Ki: mark the lower of P and Q . Answer format: the label of the selected item. Q

a = CC(C)(C)c1ccc(COCCC2CCN(Cc3ccccc3)CC2)cc1.Cl
b = COc1cc(OCC2CCN(CC3CC3)CC2)cc(OC)c1OC.Cl
Record comparison, field Ki: mark the lower of a and b . Answer format: the label of the selected item. a
(a: 4.5 nM, b: 50 nM)

a = Br.O=C(CC1CCN(CCC2CC2)CC1)c1ccc(F)cc1
b = Cl.O.OC(Cc1ccc(F)cc1)C1CCN(Cc2ccccc2)CC1 (stereo unspecified)
c = Cl.c1ccc(CN2CCC(COc3ccc4ccccc4n3)CC2)cc1
d = CC(O)c1ccc(OCC2CCN(CC3CC3)CC2)cc1 (stereo unspecified)
Order the records so the highest Ki appears first and the lowest last. Please express your ranking as an ordered list of the labels. d, a, c, b
